Measurement Notes: Toxicity liver stage against HepG2, at 10uM
Format: cell-based
Design: test concentration 10 uM, cell line HepG2-A16-CD81EGFP
Experimental Setup: human, HepG2-A16-CD81EGFP cells; read-out: INHIBITION
Measurement Label: cytotoxicity at 10 µM (%)
Field format: number, assumed %, no unit text.

Some solved cases for reference:
In [3]: df
Out[3]:
                                   compound  quantitative_readout
0  CCCN(Cc1cccnc1)C(=O)C1CCCN(C)C1 (configuration not stated)                  9.77
1             COCCCNC(=O)COc1ccccc1C(F)(F)F                  14.7
2   COCCn1ccc(=O)c(OCC(=O)Nc2ccc(OC)cc2)c1C                 0.955
3  Cc1nn(C)c(C)c1OCC(=O)NCC(O)c1ccccc1F (configuration not stated)                 0.621
4  COc1cnc(C2(O)CCN(C(=O)c3ccco3)CC2)c(OC)n1                 -7.02
5     Cc1ccccc1N1CCCN(C(=O)c2nn(C)cc2Cl)CC1                 -4.78

Kindly review the next compound as well.
query: Which measured cytotoxicity at 10 µM value corresponds to CN1CCN(CC2CCN(C(=O)CCC3CCCCC3)CC2)CC1 ?
result: -3.68

---

This section presents compounds with their documented cytotoxicity at 10 µM values.
Measurement Notes: Toxicity liver stage against HepG2, at 10uM
Assay type: cell-based
Set-up: test concentration 10 uM, cell line HepG2-A16-CD81EGFP
Experimental Setup: human, HepG2-A16-CD81EGFP cells; read-out: INHIBITION
Field format: number, assumed %, no unit text.

Some solved cases for reference:
In [3]: df
Out[3]:
                                  compound      measurement_label  measurement_units  quantitative_readout
0    Cc1cccc(OCCC(=O)N2CCCN(C(N)=O)CC2)c1C  cytotoxicity at 10 µM                  %                  -6.8
1  Cc1ccc(CC(=O)N2CCC(c3nnc4n3CCC4)CC2)cc1  cytotoxicity at 10 µM                  %                  4.78

query: Which measured cytotoxicity at 10 µM value corresponds to CCc1cc(C(=O)N[C@H]2CN(CCS(C)(=O)=O)C[C@@H]2C2CC2)[nH]n1 ?
result: 3.91

query: What about CCOc1cc(Cl)c(CN2CCC3(CCCNC3=O)C2)cc1OC (stereo unspecified) ?
result: 10.6

query: What about CC(=O)N1CCCC(c2ccc(N3CCN(C)CC3)cn2)C1 (stereo unspecified) ?
result: -28.9

query: What about NCc1cccc(-c2cccnc2C(=O)NCCN2CCOCC2)c1 ?
result: -1.29

query: What about COc1ccc(C2OC(COc3ccc(C)cc3)=NN2C(C)=O)cc1 (stereo unspecified) ?
result: -6.19

query: What about CC(=O)NCCc1ccc(S(=O)(=O)N(C)C(C)CC(C)C)s1 (stereo unspecified) ?
result: -1.88

---

Measurement Notes: Toxicity liver stage against HepG2, at 10uM
Type: cell-based
Set-up: test concentration 10 uM, cell line HepG2-A16-CD81EGFP
Experimental Setup: human, HepG2-A16-CD81EGFP cells; read-out: INHIBITION
Measurement Label: cytotoxicity at 10 µM (%)
Field format: number, assumed %, no unit text.

query: Which measured cytotoxicity at 10 µM value corresponds to Cc1cccnc1CN(C)c1ncnc2[nH]ccc12 ?
result: 4.77

---

Measurement Notes: Toxicity liver stage against HepG2, at 10uM
Type: cell-based
Design: test concentration 10 uM, cell line HepG2-A16-CD81EGFP
Experimental Setup: human, HepG2-A16-CD81EGFP cells; read-out: INHIBITION
Measurement Label: cytotoxicity at 10 µM (%)
Field format: number, assumed %, no unit text.

Some solved cases for reference:
>>> print(df.to_string())
                                   compound  measurement_units  quantitative_readout
0  Cc1ncc2c(c1CNC(=O)C1(C)CCCCO1)CCNC2 (centres undefined)                  %                 -27.9
1  Cc1ccc(NC(=O)C2CSCN2C(=O)c2cnccn2)cc1C (centres undefined)                  %                  -8.3
2  CCNC(=O)c1ccc(N2CCCC(c3nccn3C(C)C)C2)nc1 (centres undefined)                  %                 -8.39

Kindly review the next compound as well.
query: Which measured cytotoxicity at 10 µM value corresponds to Cc1ccc(Cl)c(C)c1NC(=O)N1CCCN(Cc2ccccn2)CC1 ?
result: 0.617

---

This section presents compounds with their documented cytotoxicity at 10 µM values.
Measurement Notes: Toxicity liver stage against HepG2, at 10uM
Type: cell-based
Parameters: test concentration 10 uM, cell line HepG2-A16-CD81EGFP
Experimental Setup: human, HepG2-A16-CD81EGFP cells; read-out: INHIBITION
Field format: number, assumed %, no unit text.

In [3]: df
Out[3]:
                                   compound  quantitative_readout
0  Cc1c(C(=O)NC2CCCOC2)nnn1-c1ccccc1 (stereo not drawn)                 -24.5

Kindly review the next compound as well.
query: Which measured cytotoxicity at 10 µM value corresponds to O=C(c1ccc(CN2CCCCC2)cc1)N1Cc2cnn(CCO)c2C1 ?
result: 12.6

---

Measurement Notes: Toxicity liver stage against HepG2, at 10uM
Assay type: cell-based
Design: test concentration 10 uM, cell line HepG2-A16-CD81EGFP
Experimental Setup: human, HepG2-A16-CD81EGFP cells; read-out: INHIBITION
Measurement Label: cytotoxicity at 10 µM (%)
Field format: number, assumed %, no unit text.

>>> print(df.to_string())
                                   molecule      measurement_label  quantitative_readout
0  Cc1nn(C)cc1C(=O)N1CCCN(C2Cc3ccccc3C2)CC1  cytotoxicity at 10 µM                 -3.16
1  CCN1CC(C(=O)NCc2cccnc2-n2cccn2)CC1=O (configuration not stated)  cytotoxicity at 10 µM                 0.796
2  CC(Oc1ccccc1C(F)(F)F)C(=O)NS(=O)(=O)C(C)C (configuration not stated)  cytotoxicity at 10 µM                 -7.19
3  CNc1nc(C)c(C(=O)N2CCCCC2CCc2ccccc2)s1 (configuration not stated)  cytotoxicity at 10 µM                  2.24
4      CCSCCC(=O)NS(=O)(=O)c1ccc2c(c1)OCCO2  cytotoxicity at 10 µM                  0.35
5  O=C(c1ccncc1)N1CCCC1C1CCN(Cc2ccccc2)CC1 (configuration not stated)  cytotoxicity at 10 µM                  7.43

query: Which measured cytotoxicity at 10 µM value corresponds to CC(C)NC(=O)N1CCC2(CC1)C(=O)NCCN2Cc1ccccc1 ?
result: 1.29

query: What about COCC(C)NC(=O)N1CCN(S(C)(=O)=O)CC1 (configuration not stated) ?
result: -6.53

query: What about Cc1ccc(C(=O)NCc2ccnc(C3CCCOC3)n2)s1 (configuration not stated) ?
result: 5.29

query: What about CS(=O)(=O)c1ccccc1-n1cc(NC(=O)CC2C=CCC2)cn1 (configuration not stated) ?
result: 1.78

query: What about Cc1nccc(-c2ccccc2)c1C(=O)N1CCC2(CCCO2)CC1 ?
result: 2.34

query: What about Cc1ccc(C(=O)N(C)Cc2ccc(Br)s2)c(=O)[nH]1 ?
result: 5.02

query: What about CC(=O)N1CCCC1c1cc(N2CCN(C3CCCC3)CC2)cc(C)n1 (configuration not stated) ?
result: 1.18

query: What about CCOc1cccc(CNc2cncc(-n3cccn3)n2)c1 ?
result: -0.363

query: What about Cc1ccc(C(CNCc2ccncc2)N2CCOCC2)s1 (configuration not stated) ?
result: -14.6

query: What about O=C(N[C@H]1CCCC[C@@H]1O)c1ccc2nc(-c3ccccc3)[nH]c2c1 ?
result: 0.822

query: What about O=c1cccnn1CC1CN(c2ncc(F)cn2)Cc2nccn2C1 (configuration not stated) ?
result: 4.65

query: What about COCc1ccc(CNC(=O)C2=NN(c3ccccc3)C(=O)CN2)cc1 ?
result: 26.7

query: What about CCc1ocnc1C(=O)N1CCN(c2nncc3ccccc23)CC1 ?
result: 6.61

query: What about COc1cc2cc3c(nc2cc1OC)OCCN(Cc1ccco1)C3 ?
result: -0.116

query: What about Cc1csc(C2CCCCN2C(=O)c2cc(C3CC3)[nH]n2)n1 (configuration not stated) ?
result: -11.6

query: What about CC(C)c1nc2oc(C(=O)N3CCOCC3)c(N)c2c2c1CCCC2 ?
result: -3.71

query: What about Cc1nc(CCNC(=O)NCC(c2ccco2)N(C)C)cs1 (configuration not stated) ?
result: 7.26

query: What about COc1ccnc(NC(=O)c2cscn2)c1 ?
result: 9.72

Recorded values, source ChEMBL document CHEMBL4513216.
